protocol.description: Confirmatory screen NINDS Rhodamine qHTS for Zika virus inhibitors (AID 1347161); also: nearly all actives have a fitted effect of over 60% in size
condition.info: purified enzyme assay, Rhodamine110 substrate fluorescence, 15 min; series mostly up to 114 µM
Inconclusive results are not listed. The source made the active and inactive calls. Calls follow the shape of the dose curve; as a rule, active = well fitted inhibition curve with a large enough effect; inconclusive = small, poorly fitted or top-dose-only effect; inactive = no such curve, though single readings can be large or run the other way.
Give your call using only these classes: label 1 (active), label 0 (inactive)

Reference set (5 entries):
INSERT INTO assay_data (compound, category_label) VALUES
  ('CC(C)(O)c1ccccc1CC[C@H](SCC1(CC(=O)O)CC1)c1cccc(/C=C/c2ccc3ccc(Cl)cc3n2)c1', 'label 1'),
  ('Clc1ccc(-c2nn3c(COc4cc(Cl)c(OCc5nnc6sc(-c7ccc(Cl)cc7)nn56)cc4Cl)nnc3s2)cc1', 'label 1'),
  ('CS(=O)(=O)c1ccc(-c2cn3ccccc3n2)cc1', 'label 0'),
  ('O=C(O)c1c(-c2ccccc2)oc2ccc(OCc3ccc(Cl)c(Cl)c3)cc12', 'label 1'),
  ('CC(C)c1nn2c(=O)cc(COC(=O)c3ccc(NC(=O)COc4ccccc4)cc3)nc2s1', 'label 0');

Data request: Write down the call the test reported for this compound. Item: CCCCc1nn2c(=O)cc(COC(=O)c3ccc(NC(=O)c4cccs4)cc3)nc2s1
Data returned: label 0

Data request: How was Cc1csc2nc(COC(=O)c3ccccc3NC(=O)c3ccc(C(C)(C)C)cc3)cc(=O)n12 classified in this test?
Data returned: label 0

Data request: Please indicate how the test categorized O=C(OCC#CCSc1nnc(-c2ccc(F)cc2)o1)c1ccc(F)cc1 .
Data returned: label 0

Data request: Hi, do you know how O=S(=O)(Nc1ccc(Cl)cc1)c1ccc(NS(=O)(=O)c2ccc3c(c2)OCCO3)cc1 came out in this test?
Data returned: label 1

Data request: Look up the recorded call for O=C(O)c1ccc2c(ccc3nn(-c4ccc(/C=C/c5ccc(-n6nc7ccc8cc(C(=O)O)ccc8c7n6)cc5[S+](=O)([O-])[O-])c([S+](=O)([O-])[O-])c4)nc32)c1 in this test.
Data returned: label 1

Data request: Recorded test call requested for CC1(COc2ccc(C[C@H]3SC(=O)NC3=O)cc2)CCCCC1
Data returned: label 1

Data request: Query: recorded result category for CC(C)c1ccc(Nc2sc(C(=O)c3ccccc3)c(N)c2S(=O)(=O)c2ccccc2)cc1 in this test
Data returned: label 0

Data request: Would you mind telling me which call this test gave CN(CC(=O)N(Cc1ccc(C2CCCCC2)cc1)c1ccc(C(=O)O)cc1)S(=O)(=O)c1c(F)c(F)c(F)c(F)c1F ?
Data returned: label 1
